- measurement target: Caspase-8 (Homo sapiens)
- method description: Inhibition of recombinant MCH5 (unknown origin) assessed as ratio of irreversible rate constant K3 to dissociation constant of the reversible binding step Ki pre-incubated for 60 mins with Acetyl-Tyr-Val-Ala-Asp-amino-4-methylcoumarin substrate followed by enzyme addition by fluorescence based assay
reported metric: Ratio (M⁻¹ s⁻¹)

molecule	measurement target	Ratio (M⁻¹ s⁻¹)
CC(C)[C@H](NC(=O)C(=O)NC1CCCc2ccccc21)C(=O)N[C@@H](CC(=O)O)C(=O)COc1c(F)c(F)cc(F)c1F (some centres undefined)	Caspase-8 (Homo sapiens)	456000

1 = CC(C)[C@H](NC(=O)C(=O)Nc1cnccn1)C(=O)N[C@@H](CC(=O)O)C(=O)COc1c(F)c(F)cc(F)c1F
2 = C[C@H](NC(=O)C(=O)Nc1cccc2c1CCCC2)C(=O)N[C@@H](CC(=O)O)C(=O)COc1c(F)c(F)cc(F)c1F
3 = C[C@H](NC(=O)C(=O)NCc1ccccc1)C(=O)N[C@@H](CC(=O)O)C(=O)COc1c(F)c(F)cc(F)c1F
Put the items in sequence by Ratio, from largest down. Use the labels to give the requested order. 1, 2, 3

These entries and their values trace back to ChEMBL document CHEMBL3880422.
